Source listed as patent US6455472B1.

{"line-notation": "N#C/C(C(=O)c1ccc(-c2ccc(Cl)cc2)cc1)=C1\\CCCCN1", "melting point [°C]": 134}
{"line-notation": "CN1CCC/C1=C(\\C#N)C(=O)c1ccc(Cl)cc1", "melting point [°C]": 115}
{"line-notation": "N#C/C(C(=O)c1ccc(SCC(=O)O)nc1)=C1\\CCCCN1", "melting point [°C]": 155}
{"line-notation": "N#C/C(C(=S)c1ccc(Cl)cc1)=C1\\CCCCN1", "melting point [°C]": 137}
{"line-notation": "N#C/C(C(=O)c1ccc(Cl)cc1)=C1\\CCCN1C(=O)c1ccc(Cl)cc1", "melting point [°C]": 218}
